Tested on: KRas G12D-mediated phosphorylation of ERK
Assay: Inhibition of KRas G12D-mediated phosphorylation of ERK in AGS cells
Type: cell-based
Details: Homo sapiens; AGS cells expressing G12D, 3 hours, phospho-ERK normalized to GAPDH
Protocol: Cells were plated in tissue culture treated 96 well plates at a density of 40,000 cells/well and allowed to attach for 12-14 hours. Diluted compounds were then added in a final concentration of 0.5% DMSO. After 3 hours, the medium was removed, 150 μL of 4.0% formaldehyde was added and the plates incubated at room temperature for 20 minutes. […] The amount of phospho-ERK was determined using an antibody specific for the phosphorylated form of ERK and compared to the amount of GAPDH. […]
Collected pIC50 values appear next to each entry.
Keep it numeric: pIC50 is minus log10 of the concentration in mol/L.

See these solved cases before continuing.
{"columns": ["smiles repr", "pIC50"],
 "data": [
  ["CCc1cccc2cccc(-c3ncc4c(N5C[C@H]6CC[C@@H](C5)N6)nc(OCC56CCCN5CCC6)nc4c3F)c12", 6.35],
  ["Fc1c(-c2cccc3cccc(Br)c23)ncc2c(N3C[C@H]4CC[C@@H](C3)N4)nc(OCC34CCCN3CCC4)nc12", 6.47]
]}

Give KRas G12D-mediated phosphorylation of ERK pIC50 for the following compound: N#Cc1cccc2cccc(-c3ncc4c(N5C[C@H]6CC[C@@H](C5)N6)nc(OCC56CCCN5CCC6)nc4c3F)c12
5.62

###

tested on: KRas G12D-mediated phosphorylation of ERK; assay: Inhibition of KRas G12D-mediated phosphorylation of ERK in AGS cells; assay type: cell-based; details: Homo sapiens; AGS cells expressing G12D, 3 hours, phospho-ERK normalized to GAPDH
Collected IC50 values appear next to each entry.
Report the value in µM with no unit label.

See these solved cases before continuing.
{"columns": ["compound", "target system", "readout value"],
 "data": [
  ["O=C(O[C@@H]1CN2CCC[C@]2(COc2nc(N3C[C@H]4CC[C@@H](C3)N4)c3cnc(-c4cccc5cccc(Cl)c45)c(F)c3n2)C1)N1CCOCC1", "KRas G12D-mediated phosphorylation of ERK", 3.99],
  ["O=C1OCCN1C[C@H]1CC[C@@]2(COc3nc(N4CC5CCC(C4)N5)c4cnc(-c5cccc6cccc(Cl)c56)c(F)c4n3)CCCN12", "KRas G12D-mediated phosphorylation of ERK", 1.16],
  ["C#Cc1cccc2cc(O)cc(-c3ncc4c(N5C[C@H]6CC[C@@H](C5)N6)nc(OCC56CCCN5CCC6)nc4c3F)c12", "KRas G12D-mediated phosphorylation of ERK", 0.0071],
  ["C#Cc1cccc2cccc(-c3ncc4c(N5C[C@H]6CC[C@@H](C5)N6)nc(OC[C@]56CCCN5C[C@@H](F)C6)nc4c3F)c12", "KRas G12D-mediated phosphorylation of ERK", 0.242]
]}

Give KRas G12D-mediated phosphorylation of ERK IC50 for the following compound: CN(C)C(=O)NC[C@H]1CC[C@@]2(COc3nc(N4CC5CCC(C4)N5)c4cnc(-c5cccc6cccc(Cl)c56)c(F)c4n3)CCCN12
4.78

Give KRas G12D-mediated phosphorylation of ERK IC50 for the following compound: Fc1c(-c2cccc3c2CCC3)ncc2c(N3CC4CCC(C3)N4)nc(OC[C@@]34CCCN3C[C@H](F)C4)nc12
6.96

Give KRas G12D-mediated phosphorylation of ERK IC50 for the following compound: Fc1c(-c2cccc3ccccc23)ncc2c(N3C[C@H]4CC[C@@H](C3)N4)nc(OCC34CCCN3CCC4)nc12
3.38

Give KRas G12D-mediated phosphorylation of ERK IC50 for the following compound: C#Cc1cccc2cc(O)cc(-c3ncc4c(N5CC6CCC(C5)N6)nc(OC[C@@]56CCCN5C[C@H](OC)C6)nc4c3F)c12 (stereo in doubt)
0.008

Source: patent US11453683B1
